EC50 values for the compounds below.
Test system: THP1
measurement-description: Proliferation assay (CellTiter Glo)
Type: cell-based, human
condition-parameters: Homo sapiens, THP-1; THP1 (N-RAS: G12D); absolute EC50; 96 hours; read-out: Ab EC50
Description: The dose range for most compounds was 4.6 nM-30 μM. The dose ranges for some compounds were adjusted downward to 0.46 nM-3 μM or 0.08 nM-0.5 μM or 0.03 nM-0.2 μM. […] The results are shown in Tables 3-6 for pancreatic cancer, lung cancer, colon/gastric cancer, and leukemia.
experimental-readout: EC50 (nM)

[[record]]
compound = "CC(=O)O[C@@]12C[C@@H](C)[C@@]3(O)[C@@H](C=C(CO)C[C@]4(O)C(=O)C(C)=C[C@@H]34)[C@@H]1C2(C)C [Compound K101A, 12-deoxyphorbol 13-acetate]"
censor_symbol = "="
val = 870

[[record]]
compound = "CC(=O)O[C@H]1C(=O)[C@@]2(C)[C@H]([C@H](OC(=O)c3ccccc3)[C@]3(O)C[C@H](OC(=O)[C@H](O)[C@@H](NC(=O)c4ccccc4)c4ccccc4)C(C)=C1C3(C)C)[C@]1(OC(C)=O)CO[C@@H]1C[C@@H]2O"
censor_symbol = "="
val = 8.3

[[record]]
compound = "CCCCCCCCCCCCCC(=O)O[C@@H]1[C@@H](C)[C@@]2(O)[C@@H](C=C(CO)C[C@]3(O)C(=O)C(C)=C[C@@H]23)[C@@H]2C(C)(C)[C@]12OC(C)=O [Compound K103, 12-O-Tetradecanoylphorbol-13-acetate]"
censor_symbol = "<"
val = 4.6

[[record]]
compound = "C/C=C(/C)C(=O)O[C@H]1C(C)=C[C@]23C(=O)[C@@H](C=C(CO)[C@@H](O)[C@]12O)[C@H]1[C@@H](C[C@H]3C)C1(C)C [Compound K102, ingenol-3-angelate]"
censor_symbol = "="
val = 15


---

Test system: THP1
measurement-description: Proliferation assay (CellTiter Glo)
Format: cell-based, human
condition-parameters: THP1; relative EC50; 96 hours; read-out: Re EC50
EC50 for assorted compounds
experimental-readout: EC50 (µM)

[[record]]
compound = "CC(=O)OCC1=CC2C3C(C)(C)C3(OC(C)=O)CC(C)C2(O)C2C=C(C)C(=O)C2(O)C1 (stereo not drawn) [Compound K101E]"
val = 1.02

[[record]]
compound = "CC(=O)OC12CC(C)C3(O)C(C=C(CO)CC4(O)C(O)C(C)=CC43)C1C2(C)C (stereo not drawn) [Compound K101C]"
val = 8.11

[[record]]
compound = "CC(=O)OC12CC(C)C3(O)C(C4OC4(CO)CC4(O)C(O)C(C)=CC43)C1C2(C)C (stereo not drawn) [Compound K101D]"
val = 14


---

Tested on: HCT116
measurement-description: Proliferation assay (CellTiter Glo)
Assay type: cell-based
condition-parameters: HCT116; % of top inhibition; 96 hours
experimental-readout: Top Inhibition % (%)

[[record]]
compound = "CC(=O)OC12CC(C)C3(O)C(C=C(CO)CC4(O)C(O)C(C)=CC43)C1C2(C)C (stereo not drawn) [Compound K101C]"
val = 12.2

[[record]]
compound = "CC(=O)OC12CC(C)C3(O)C(C4OC4(CO)CC4(O)C(O)C(C)=CC43)C1C2(C)C (stereo not drawn) [Compound K101D]"
val = 3.0

[[record]]
compound = "CC(=O)OCC1=CC2C3C(C)(C)C3(OC(C)=O)CC(C)C2(O)C2C=C(C)C(=O)C2(O)C1 (stereo not drawn) [Compound K101E]"
val = 27.4


---

Test system: Capan-1
measurement-description: Proliferation assay (CellTiter Glo)
Format: cell-based
condition-parameters: Capan-1; % of top inhibition; 96 hours
experimental-readout: Top Inhibition % (%)

[[record]]
compound = "CC(=O)O[C@@]12C[C@@H](C)[C@@]3(O)[C@@H](C=C(CO)C[C@]4(O)C(=O)C(C)=C[C@@H]34)[C@@H]1C2(C)C [Compound K101A, 12-deoxyphorbol 13-acetate]"
unit_label = "%"
val = 37.1

[[record]]
compound = "CC(=O)OCC1=CC2C3C(C)(C)C3(OC(C)=O)CC(C)C2(O)C2C=C(C)C(=O)C2(O)C1 (stereo not shown) [Compound K101E]"
unit_label = "%"
val = 44.6

[[record]]
compound = "CC(=O)OC12CC(C)C3(O)C(C4OC4(CO)CC4(O)C(O)C(C)=CC43)C1C2(C)C (stereo not shown) [Compound K101D]"
unit_label = "%"
val = 22.3

[[record]]
compound = "CC(=O)O[C@H]1C(=O)[C@@]2(C)[C@H]([C@H](OC(=O)c3ccccc3)[C@]3(O)C[C@H](OC(=O)[C@H](O)[C@@H](NC(=O)c4ccccc4)c4ccccc4)C(C)=C1C3(C)C)[C@]1(OC(C)=O)CO[C@@H]1C[C@@H]2O"
unit_label = "%"
val = 73.5

[[record]]
compound = "C/C=C(/C)C(=O)O[C@H]1C(C)=C[C@]23C(=O)[C@@H](C=C(CO)[C@@H](O)[C@]12O)[C@H]1[C@@H](C[C@H]3C)C1(C)C [Compound K102, ingenol-3-angelate]"
unit_label = "%"
val = 46.9

[[record]]
compound = "CC(=O)OC12CC(C)C3(O)C(C=C(CO)CC4(O)C(O)C(C)=CC43)C1C2(C)C (stereo not shown) [Compound K101C]"
unit_label = "%"
val = 35.7

[[record]]
compound = "CCCCCCCCCCCCCC(=O)O[C@@H]1[C@@H](C)[C@@]2(O)[C@@H](C=C(CO)C[C@]3(O)C(=O)C(C)=C[C@@H]23)[C@@H]2C(C)(C)[C@]12OC(C)=O [Compound K103, 12-O-Tetradecanoylphorbol-13-acetate]"
unit_label = "%"
val = 51.0


---

Tested on: A549 lung cancer cell line
measurement-description: Combination viability/proliferation assays (384-well IC50 ratio, 96-well MacSynergy II)
Type: cell-based
condition-parameters: A549; in combination with 0.005 μM K101A; NC: no change
experimental-readout: Ratio ([…] DMSO IC50/combination IC50)

[[record]]
compound = "CC(=O)Nc1cccc(-n2c(=O)n(C3CC3)c(=O)c3c(Nc4ccc(I)cc4F)n(C)c(=O)c(C)c32)c1"
experimental_readout = "Ratio ([…] DMSO IC50/combination IC50)"
val = 1.36

[[record]]
compound = "Nc1cc(C(F)(F)F)c(-c2cc(N3CCOCC3)nc(N3CCOCC3)n2)cn1"
experimental_readout = "Ratio ([…] DMSO IC50/combination IC50)"
val = 0.94

[[record]]
compound = "NC1(c2ccc(-c3nc4ccn5c(=O)[nH]nc5c4cc3-c3ccccc3)cc2)CCC1"
experimental_readout = "Ratio ([…] DMSO IC50/combination IC50)"
val = 0.68

[[record]]
compound = "Nc1ccn([C@@H]2O[C@H](CO)[C@@H](O)C2(F)F)c(=O)n1"
experimental_readout = "Ratio ([…] DMSO IC50/combination IC50)"
val = 0.80

[[record]]
compound = "O=C(c1cc(Cc2n[nH]c(=O)c3ccccc23)ccc1F)N1CCN(C(=O)C2CC2)CC1"
experimental_readout = "Ratio ([…] DMSO IC50/combination IC50)"
val = 0.91

[[record]]
compound = "CC[C@H](Nc1ncnc2[nH]cnc12)c1nc2cccc(F)c2c(=O)n1-c1ccccc1"
experimental_readout = "Ratio ([…] DMSO IC50/combination IC50)"
val = 1.04

[[record]]
compound = "N.N.[Cl][Pt][Cl] [Cisplatin]"
experimental_readout = "Ratio ([…] DMSO IC50/combination IC50)"
val = 0.53


---

Tested on: THP1
measurement-description: Proliferation assay (CellTiter Glo)
Assay type: cell-based, human
condition-parameters: Homo sapiens, THP-1; THP1; relative EC50; 96 hours; read-out: Re EC50
Reported EC50 values for a set of compounds
experimental-readout: EC50 (nM)

[[record]]
compound = "CC(=O)O[C@@]12C[C@@H](C)[C@@]3(O)[C@@H](C=C(CO)C[C@]4(O)C(=O)C(C)=C[C@@H]34)[C@@H]1C2(C)C [Compound K101A, 12-deoxyphorbol 13-acetate]"
unit_label = "nM"
val = 300

[[record]]
compound = "C/C=C(/C)C(=O)O[C@H]1C(C)=C[C@]23C(=O)[C@@H](C=C(CO)[C@@H](O)[C@]12O)[C@H]1[C@@H](C[C@H]3C)C1(C)C [Compound K102, ingenol-3-angelate]"
unit_label = "nM"
val = 12

[[record]]
compound = "CC(=O)O[C@H]1C(=O)[C@@]2(C)[C@H]([C@H](OC(=O)c3ccccc3)[C@]3(O)C[C@H](OC(=O)[C@H](O)[C@@H](NC(=O)c4ccccc4)c4ccccc4)C(C)=C1C3(C)C)[C@]1(OC(C)=O)CO[C@@H]1C[C@@H]2O"
unit_label = "nM"
val = 7.6


---

As shown below, each of these compounds has a reported Top Inhibition % value.
System: A549
measurement-description: Proliferation assay (CellTiter Glo)
Type: cell-based
condition-parameters: A549; % of top inhibition; 96 hours
experimental-readout: Top Inhibition % (%)

[[record]]
compound = "CC(=O)O[C@H]1C(=O)[C@@]2(C)[C@H]([C@H](OC(=O)c3ccccc3)[C@]3(O)C[C@H](OC(=O)[C@H](O)[C@@H](NC(=O)c4ccccc4)c4ccccc4)C(C)=C1C3(C)C)[C@]1(OC(C)=O)CO[C@@H]1C[C@@H]2O"
val = 86.0

[[record]]
compound = "CC(=O)OCC1=CC2C3C(C)(C)C3(OC(C)=O)CC(C)C2(O)C2C=C(C)C(=O)C2(O)C1 (stereo not shown) [Compound K101E]"
val = 78.7

[[record]]
compound = "CC(=O)OC12CC(C)C3(O)C(C4OC4(CO)CC4(O)C(O)C(C)=CC43)C1C2(C)C (stereo not shown) [Compound K101D]"
val = 44.4

[[record]]
compound = "C/C=C(/C)C(=O)O[C@H]1C(C)=C[C@]23C(=O)[C@@H](C=C(CO)[C@@H](O)[C@]12O)[C@H]1[C@@H](C[C@H]3C)C1(C)C [Compound K102, ingenol-3-angelate]"
val = 80.8

[[record]]
compound = "CC(=O)O[C@@]12C[C@@H](C)[C@@]3(O)[C@@H](C=C(CO)C[C@]4(O)C(=O)C(C)=C[C@@H]34)[C@@H]1C2(C)C [Compound K101A, 12-deoxyphorbol 13-acetate]"
val = 76.0

[[record]]
compound = "CCCCCCCCCCCCCC(=O)O[C@@H]1[C@@H](C)[C@@]2(O)[C@@H](C=C(CO)C[C@]3(O)C(=O)C(C)=C[C@@H]23)[C@@H]2C(C)(C)[C@]12OC(C)=O [Compound K103, 12-O-Tetradecanoylphorbol-13-acetate]"
val = 80.6

[[record]]
compound = "CC(=O)OC12CC(C)C3(O)C(C=C(CO)CC4(O)C(O)C(C)=CC43)C1C2(C)C (stereo not shown) [Compound K101C]"
val = 70.3

